Test system: Pfeiffer
TEST SUMMARY: IC50 cell-based assay, suspension cells, Pfeiffer
CONDITION SET: Homo sapiens, Lymphoma, Diffuse large b-cell, read-out: IC50 of Compounds in Suspension Cell Types
MEASURED METRIC: IC50

structure_string=O=C(Nc1cc(F)cc(C(F)(F)F)c1)c1cc(-c2ccc(Br)cc2)oc1C(F)(F)F target_under_test=Pfeiffer measured_metric=IC50 result_value="10 to 20 µM"
structure_string=O=C(Nc1cc(C(F)(F)F)cc(C(F)(F)F)c1)c1cc(-c2ccc(Cl)cc2)oc1C(F)(F)F target_under_test=Pfeiffer measured_metric=IC50 result_value="< 5 µM"
structure_string=O=C(Nc1cc(C(F)(F)F)cc(C(F)(F)F)c1)c1cc(-c2ccccc2)oc1C(F)(F)F target_under_test=Pfeiffer measured_metric=IC50 result_value="< 5 µM"
structure_string=O=C(Nc1cc(F)cc(C(F)(F)F)c1)c1cc(-c2ccccc2)oc1C(F)(F)F target_under_test=Pfeiffer measured_metric=IC50 result_value="10 to 20 µM"
structure_string=O=C(Nc1cc(F)cc(C(F)(F)F)c1)c1cc(-c2ccc(Cl)cc2)oc1C(F)(F)F target_under_test=Pfeiffer measured_metric=IC50 result_value="5 to 10 µM"
structure_string=Cc1oc(-c2ccccc2)cc1C(=O)Nc1cc(C(F)(F)F)cc(C(F)(F)F)c1 target_under_test=Pfeiffer measured_metric=IC50 result_value="> 20 µM"
structure_string=O=C(Nc1cc(C(F)(F)F)cc(C(F)(F)F)c1)c1cc(-c2ccc(Br)cc2)oc1C(F)(F)F target_under_test=Pfeiffer measured_metric=IC50 result_value="< 5 µM"

====

Tested on: SK-MEL-28
TEST SUMMARY: IC50 cell-based assay, adherent cells, SK-MEL-28
CONDITION SET: Homo sapiens, Melanoma, 72 hours, read-out: IC50 of Compounds in Adherent Cell Types
pIC50: −log10 of the molar value.
Collected pIC50 values appear next to each entry.
MEASURED METRIC: pIC50

structure_string=O=C(Nc1cc(F)cc(C(F)(F)F)c1)c1cc(-c2ccc(Br)cc2)oc1C(F)(F)F result_value="4.70 to 5.00"
structure_string=O=C(Nc1cc(F)cc(C(F)(F)F)c1)c1cc(-c2ccccc2)oc1C(F)(F)F result_value="5.00 to 5.30"
structure_string=O=C(Nc1cc(C(F)(F)F)cc(C(F)(F)F)c1)c1cc(-c2ccc(Br)cc2)oc1C(F)(F)F result_value="5.00 to 5.30"
structure_string=O=C(Nc1cc(C(F)(F)F)cc(C(F)(F)F)c1)c1cc(-c2ccc(Cl)cc2)oc1C(F)(F)F result_value="5.00 to 5.30"
structure_string=O=C(Nc1cc(F)cc(C(F)(F)F)c1)c1cc(-c2ccc(Cl)cc2)oc1C(F)(F)F result_value="5.00 to 5.30"
structure_string=O=C(Nc1cc(C(F)(F)F)cc(C(F)(F)F)c1)c1cc(-c2ccccc2)oc1C(F)(F)F result_value="> 5.30"

====

Collected pIC50 values appear next to each entry.
Tested on: Nalm-6-VR
TEST SUMMARY: IC50 cell-based assay, suspension cells, Nalm-6-VR
CONDITION SET: Leukemia, B-ALL, Vincristine resistant, read-out: IC50 of Compounds in Suspension Cell Types
pIC50: −log10 of the molar value.
MEASURED METRIC: pIC50

compound="O=C(Nc1cc(C(F)(F)F)cc(C(F)(F)F)c1)c1cc(-c2ccccc2)oc1C(F)(F)F [Compound 1]" measured_metric=pIC50 result_value="> 5.30"
compound="O=C(Nc1cc(C(F)(F)F)cc(C(F)(F)F)c1)c1cc(-c2ccc(Br)cc2)oc1C(F)(F)F [Compound 3]" measured_metric=pIC50 result_value="> 5.30"
compound="O=C(Nc1cc(F)cc(C(F)(F)F)c1)c1cc(-c2ccccc2)oc1C(F)(F)F [Compound 6]" measured_metric=pIC50 result_value="> 5.30"
compound="O=C(Nc1cc(F)cc(C(F)(F)F)c1)c1cc(-c2ccc(Br)cc2)oc1C(F)(F)F [Compound 7]" measured_metric=pIC50 result_value="4.70 to 5.00"
compound="O=C(Nc1cc(C(F)(F)F)cc(C(F)(F)F)c1)c1cc(-c2ccc(Cl)cc2)oc1C(F)(F)F [Compound 2]" measured_metric=pIC50 result_value="> 5.30"
compound="O=C(Nc1cc(F)cc(C(F)(F)F)c1)c1cc(-c2ccc(Cl)cc2)oc1C(F)(F)F [Compound 5]" measured_metric=pIC50 result_value="> 5.30"
